Protein target, amino acids: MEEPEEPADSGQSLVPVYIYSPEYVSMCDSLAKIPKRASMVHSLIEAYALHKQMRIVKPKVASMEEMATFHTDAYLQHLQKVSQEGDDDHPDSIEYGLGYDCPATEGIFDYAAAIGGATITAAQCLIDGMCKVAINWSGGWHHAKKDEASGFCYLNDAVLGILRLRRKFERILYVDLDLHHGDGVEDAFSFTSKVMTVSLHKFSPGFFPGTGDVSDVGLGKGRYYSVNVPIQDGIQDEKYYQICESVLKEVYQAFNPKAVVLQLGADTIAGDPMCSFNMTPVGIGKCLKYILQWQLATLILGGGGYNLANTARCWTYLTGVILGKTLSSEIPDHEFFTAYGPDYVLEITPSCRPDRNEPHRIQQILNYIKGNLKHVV
pIC50: −log10 of the molar value.
The following molecules are shown together with reported pIC50 values.
readout.type: pIC50

- molecule: "O=C(NO)c1cc(F)c2c(c1)CCN(C1CCC13CNC3)C2 (stereo not drawn)"
  recorded.result: "5.00 to 6.00"
- molecule: "O=C(NO)c1ccc2c(c1)CCN1CCCC[C@@H]21"
  recorded.result: "5.00 to 6.00"
- molecule: "CN1CCC[C@@]2(CC[C@H]2N2CCc3cc(C(=O)NO)cc(F)c3C2)C1 (single isomer, unassigned)"
  recorded.result: "4.00 to 5.00"

====

measured.on: UniProt:Q9UBN7
Sequence (Q9UBN7 1-1215): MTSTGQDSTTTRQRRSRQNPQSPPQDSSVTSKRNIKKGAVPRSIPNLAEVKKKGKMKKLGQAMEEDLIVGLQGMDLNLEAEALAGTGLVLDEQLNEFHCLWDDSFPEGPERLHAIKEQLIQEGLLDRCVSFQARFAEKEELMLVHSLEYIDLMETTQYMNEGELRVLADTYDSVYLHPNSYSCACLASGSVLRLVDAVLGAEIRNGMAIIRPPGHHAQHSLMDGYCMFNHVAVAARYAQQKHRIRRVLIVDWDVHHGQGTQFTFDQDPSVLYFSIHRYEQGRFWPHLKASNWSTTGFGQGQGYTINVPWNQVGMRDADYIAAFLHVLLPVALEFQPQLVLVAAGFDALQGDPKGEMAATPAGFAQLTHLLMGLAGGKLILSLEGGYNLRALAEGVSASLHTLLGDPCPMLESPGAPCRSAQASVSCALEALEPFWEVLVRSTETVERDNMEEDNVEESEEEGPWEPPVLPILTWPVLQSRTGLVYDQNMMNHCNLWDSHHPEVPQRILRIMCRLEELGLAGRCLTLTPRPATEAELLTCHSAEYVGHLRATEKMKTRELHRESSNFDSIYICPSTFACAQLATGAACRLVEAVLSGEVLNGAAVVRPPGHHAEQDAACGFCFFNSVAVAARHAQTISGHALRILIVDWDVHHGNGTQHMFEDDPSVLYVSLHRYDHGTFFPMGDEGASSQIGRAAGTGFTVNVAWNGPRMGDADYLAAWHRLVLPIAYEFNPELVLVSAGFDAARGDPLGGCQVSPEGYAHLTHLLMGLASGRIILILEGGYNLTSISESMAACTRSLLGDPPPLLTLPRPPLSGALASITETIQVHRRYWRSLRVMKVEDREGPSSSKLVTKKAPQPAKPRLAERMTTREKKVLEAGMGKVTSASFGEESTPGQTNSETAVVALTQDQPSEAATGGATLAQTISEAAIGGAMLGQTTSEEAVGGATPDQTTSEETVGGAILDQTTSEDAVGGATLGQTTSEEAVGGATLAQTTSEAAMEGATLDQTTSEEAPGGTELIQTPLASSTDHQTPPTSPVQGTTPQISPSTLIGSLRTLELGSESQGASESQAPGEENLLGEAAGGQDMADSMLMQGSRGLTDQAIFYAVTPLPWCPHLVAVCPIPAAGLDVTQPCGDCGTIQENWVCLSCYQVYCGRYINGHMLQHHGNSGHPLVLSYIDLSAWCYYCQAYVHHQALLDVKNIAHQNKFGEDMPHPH

- compound: "CC[C@@H]1Cc2c(F)cc(C(=O)NO)cc2CN1CC12CC3CC(CC(C3)C1)C2 (single isomer, unassigned)"
  IC50: "100 to 1000 nM"
- compound: "O=C(NO)c1cc(F)c2c(c1)CCN(C1CC3(C1)CN(C1CC1)C3)C2"
  IC50: "1 to 100 nM"
- compound: "O=C(NO)c1ccc2c(c1F)CCN(C1CC3(CCCCC3)C1)C2"
  IC50: "> 100000 nM"
